measureName: melting point

A selection of reference data follows.
INSERT INTO measurements (compound, observed) VALUES
  ('Cc1nn(C)c(SCc2ccccc2)c1[N+](=O)[O-]', '82 to 83 °C'),
  ('COc1cc(Br)c2nc(-c3ccc(OC)c(F)c3)cc(Br)c2c1', '178 to 179 °C'),
  ('Cc1ccc(-c2nc3cccnc3n2CC(N)=O)s1', '> 250 °C'),
  ('CN(C)c1cc(N2C(=O)C3=C(CCCC3)C2=O)ccc1Cl', '124 to 127 °C'),
  ('CCCCc1csc2ccc3[nH]c4c(c3c12)CNCC4', '224 to 225 °C');

Entry COc1cc(-c2ccc(-c3ccc(N)c(OC)c3)o2)ccc1N ; melting point = 188 to 190 °C

Per the record, COc1ccc(/C=C/c2cc(/C=C/c3ccc4cc[nH]c4c3)n[nH]2)c(OCc2ccccn2)c1 has melting point of 107 to 115 °C

For CC(C)C(=O)NS(=O)(=O)c1cccc(N)c1 the compound record lists melting point as 110 to 112 °C

// CC(C)(C)n1nnc(NC(=O)C(c2ccccc2)c2ccccc2)n1 : melting point value = 191 to 192 °C

Memo: CN1CCN(C(=O)OC2c3ccccc3C(=O)N2c2ccc3c(Cl)ccnc3n2)CC1 (stereo not given) , reported melting point: 240 °C
